# target: T1, human ADAMTS5 (human, UniProt Q9UNA0 262-622, limits assumed)
# T1 sequence: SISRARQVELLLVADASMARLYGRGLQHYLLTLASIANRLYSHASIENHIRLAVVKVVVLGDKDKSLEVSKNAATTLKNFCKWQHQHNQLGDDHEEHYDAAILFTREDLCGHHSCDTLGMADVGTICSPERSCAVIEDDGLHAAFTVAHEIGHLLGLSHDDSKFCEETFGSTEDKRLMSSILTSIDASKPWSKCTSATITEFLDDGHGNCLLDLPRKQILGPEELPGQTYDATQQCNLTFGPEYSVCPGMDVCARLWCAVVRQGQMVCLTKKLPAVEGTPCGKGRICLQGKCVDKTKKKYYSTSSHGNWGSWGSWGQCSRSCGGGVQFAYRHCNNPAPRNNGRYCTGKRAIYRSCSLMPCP
# protocolNotes: cell-based or functional assay
Checkbox rule: Aggrecan Substrate Cleavage Neutralization IC50 lower than 0.05 nM = Satisfied; Aggrecan Substrate Cleavage Neutralization IC50 not lower than 0.05 nM = Not satisfied.

3A12.1D7 (antibody, V domains shown, Murine monoclonal antibody from a hybridoma) VH: EVKFEESGGGLVQPGGSMKLSCAASGFIFSDAWMDWVRQSPEKGLEWVAEIRHKANDYAIFYDESVKGRFTISRDDSKSIVYLQMNNLRPEDTGIYYCTSPFAYWGQGTLVTVSA VL: DIVMTQSQKFMSVTVGDRVSITCKASQSVGTTIVWYQQKPGQSPKLLIYSASNRHTGVPDRFTGSGSGTDFILTISNVQSEDLADYFCQQYSSYPFTFGSGTKLEIKR :: Not satisfied
7B4.1E11 (antibody, IgG1, V domains shown, also called Murine 7B4.1E11) VH: EVKLEESGGGLVQPGGSMKLSCAASGFTSSDAWMDWVRQSPEKGLEWVAEIRNKANNHARHYAESVKGRFTISRDDSKSSVYLQMNSLRAEDSGIYYCTRTYYYGSSYGYCDVWGTGTTVTVSS VL: DIQMTQSPASLSASVGETVTITCRTSENIYSYLAWYQQKQGKSPQLLVYNAKTLAEGVPSRFSGSGSGTQFSLKINSLQPEDFGSYSCQHHYGTPWTFGGGTKLEIKR :: Not satisfied
12F4.1H7 (antibody, IgG2, V domains shown, also called Murine 12F4.1H7) VH: EVKLEESGGGLVQPGGSMKLSCTASGFTFSDAWMDWVRQSPEKGLEWVAEIRHKANDHAIFYDESVKGRFTISRDDSKNIVYLQMNSLRPEDTGIYYCTSPFAYWGQGTLVTVSA VL: DIVMTQSQKFMSVTVGDRVSITCKASQSVGTTIVWYQQKPGQSPKLLIYSASNRHTGVPDRFTGSGSGTDFILTINNVQSEDLADYFCQQYTSYPFTFGSGTKLEIKR :: Not satisfied
2D3.1D4 (antibody, V domains shown, Murine monoclonal antibody from a hybridoma) VH: EVKLEESGGGLVQPGGSMKLSCAASGITFSDAWMDWVRQSPEKGLEWVADIRNTANNHATFYAESVKGRFTISRDDSKSTVYLQMNTLRPEDTGIYYCTSPFAYWGQGTLVTVSA VL: DIVMTQSQKFMSTTVGDRVSITCKASQNVGTAVVWFQQKPGQSPKLLIYSASNRYTRVPDRFTGSGSGTDFTLTISNVQSEDLADYFCQQYVNYPFTFGSGTKLEIKR :: Satisfied

Data credit: patent US20120095193A1
